Data origin, for the record: ChEMBL document CHEMBL4507291

Measurement Type: Ki (µM)
Give the value, in units of µM, as a plain number.

Value (Ki, Sodium-dependent noradrenaline transporter (Homo sapiens, UniProt P23975)) for record C[C@@H]1CN(c2cc(-c3n[nH]c4ccc(OC5(C)CC5)cc34)ncn2)C[C@H](C)O1 [MLi-2] = 3.79

###

- Tested Target: MAO-B (amine oxidase [flavin-containing] B) (Homo sapiens, UniProt P27338)
- Sequence (P27338 whole entry): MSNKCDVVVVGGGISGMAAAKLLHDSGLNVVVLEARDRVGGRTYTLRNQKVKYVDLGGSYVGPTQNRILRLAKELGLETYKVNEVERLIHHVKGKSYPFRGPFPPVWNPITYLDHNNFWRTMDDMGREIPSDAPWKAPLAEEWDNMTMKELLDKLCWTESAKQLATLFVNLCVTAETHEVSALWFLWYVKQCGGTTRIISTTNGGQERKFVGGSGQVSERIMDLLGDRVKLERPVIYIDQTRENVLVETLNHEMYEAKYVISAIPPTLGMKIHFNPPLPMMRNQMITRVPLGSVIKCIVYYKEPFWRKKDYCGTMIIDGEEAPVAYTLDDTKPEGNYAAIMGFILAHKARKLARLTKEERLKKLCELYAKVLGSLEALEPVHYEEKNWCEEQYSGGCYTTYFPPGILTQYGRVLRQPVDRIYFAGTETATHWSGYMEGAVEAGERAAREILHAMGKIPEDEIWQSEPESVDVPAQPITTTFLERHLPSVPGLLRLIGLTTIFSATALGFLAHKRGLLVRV
- Experimental Protocol: Inhibition of Monoamine Oxidase MAO-B at compound concentration of 10.0 uM in the Eurofins-Panlabs enzyme assay (Eurofins_assay_140120)
- Design: substrate with concentration 50 uM Kynuramine, incubation time 60 min, incubation temperature 37 C
- Assay Conditions: recombinant human MAO-B expressed in insect Hi5 cells, probe kynuramine (50 uM), compound concentration 10 uM
Measurement Type: inhibition at 60 min, 10 µM

Notebook: C[C@@H]1CN(c2cc(-c3n[nH]c4ccc(OC5(C)CC5)cc34)ncn2)C[C@H](C)O1 , inhibition at 60 min, 10 µM read as 28% (not active)

###

- Tested Target: 5-hydroxytryptamine receptor 2B (Homo sapiens)
- Sequence (P41595 whole entry): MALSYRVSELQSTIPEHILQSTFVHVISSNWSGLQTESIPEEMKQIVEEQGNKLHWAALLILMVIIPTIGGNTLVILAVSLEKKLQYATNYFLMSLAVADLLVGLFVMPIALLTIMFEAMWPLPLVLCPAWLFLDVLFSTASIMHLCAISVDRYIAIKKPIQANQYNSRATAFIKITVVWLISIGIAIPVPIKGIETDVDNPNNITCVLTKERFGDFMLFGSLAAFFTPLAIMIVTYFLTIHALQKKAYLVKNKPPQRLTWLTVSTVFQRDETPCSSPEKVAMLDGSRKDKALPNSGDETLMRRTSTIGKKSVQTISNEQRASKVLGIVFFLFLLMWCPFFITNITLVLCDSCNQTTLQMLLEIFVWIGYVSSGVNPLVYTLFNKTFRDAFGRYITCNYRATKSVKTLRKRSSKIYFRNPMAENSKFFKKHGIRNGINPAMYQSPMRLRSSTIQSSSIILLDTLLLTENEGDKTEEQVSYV
- Experimental Protocol: Inhibition of Serotonin (5-Hydroxytryptamine) 5-HT2B at compound concentration of 10.0 uM in the Eurofins-Panlabs radioligand binding assay (Eurofins_assay_271700)
- Parameters: ligand concentration 1.2 nM, non-specific ligand with concentration 10 uM Serotonin (5-HT), incubation time 60 min, incubation temperature 37 C
Measurement Type: Ki (nM)
Just the number in nM, nothing appended.

The observed Ki for C[C@@H]1CN(c2cc(-c3n[nH]c4ccc(OC5(C)CC5)cc34)ncn2)C[C@H](C)O1 when tested with 5-hydroxytryptamine receptor 2B (Homo sapiens) stands at 750

###

- Tested Target: Peroxisome proliferator-activated receptor gamma (Homo sapiens, UniProt P37231)
- Sequence (P37231 whole entry): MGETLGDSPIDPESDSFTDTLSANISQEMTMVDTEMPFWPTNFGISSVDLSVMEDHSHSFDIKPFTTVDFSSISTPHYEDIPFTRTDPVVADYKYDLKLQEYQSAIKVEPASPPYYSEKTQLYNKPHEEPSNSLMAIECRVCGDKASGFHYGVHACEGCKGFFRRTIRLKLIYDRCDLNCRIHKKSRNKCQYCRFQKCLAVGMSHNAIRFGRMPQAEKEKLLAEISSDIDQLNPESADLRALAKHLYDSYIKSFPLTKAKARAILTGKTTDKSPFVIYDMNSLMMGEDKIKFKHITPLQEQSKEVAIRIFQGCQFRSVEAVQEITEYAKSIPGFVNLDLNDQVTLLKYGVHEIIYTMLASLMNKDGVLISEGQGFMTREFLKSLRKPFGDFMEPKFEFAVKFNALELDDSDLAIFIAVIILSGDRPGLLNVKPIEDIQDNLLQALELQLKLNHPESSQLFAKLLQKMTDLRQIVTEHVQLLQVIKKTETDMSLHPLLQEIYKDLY
- Experimental Protocol: PPARgamma Eurofins-Panlabs radioligand binding assay
Measurement Type: Ki
Don't forget the unit after the number, please.

Entry under test: C[C@@H]1CN(c2cc(-c3n[nH]c4ccc(OC5(C)CC5)cc34)ncn2)C[C@H](C)O1 [MLi-2] . Its Ki was 1190 nM

###

- Tested Target: Sigma intracellular receptor 2 (Homo sapiens, UniProt Q5BJF2)
- Sequence (Q5BJF2 whole entry): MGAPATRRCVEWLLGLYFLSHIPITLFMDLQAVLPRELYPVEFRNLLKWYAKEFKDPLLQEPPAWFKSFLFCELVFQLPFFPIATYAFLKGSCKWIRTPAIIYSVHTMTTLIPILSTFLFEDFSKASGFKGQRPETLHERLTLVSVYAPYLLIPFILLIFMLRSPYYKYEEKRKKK
- Experimental Protocol: GPCRScan assay: inhibition of Sigma 2
Measurement Type: pKi
Keep it numeric: pKi is minus log10 of the concentration in mol/L.

Kindly note the recorded pKi for C[C@@H]1CN(c2cc(-c3nn(C)c4ccc(OC5(C)CC5)cc34)ncn2)C[C@H](C)O1 [MLi-2-NC] , which is 5.97

So, C[C@@H]1CN(c2cc(-c3n[nH]c4ccc(OC5(C)CC5)cc34)ncn2)C[C@H](C)O1 [MLi-2] ? Its pKi was 5.34

###

- Tested Target: MAO-A (amine oxidase [flavin-containing] A) (Homo sapiens, UniProt P21397)
- Sequence (P21397 whole entry): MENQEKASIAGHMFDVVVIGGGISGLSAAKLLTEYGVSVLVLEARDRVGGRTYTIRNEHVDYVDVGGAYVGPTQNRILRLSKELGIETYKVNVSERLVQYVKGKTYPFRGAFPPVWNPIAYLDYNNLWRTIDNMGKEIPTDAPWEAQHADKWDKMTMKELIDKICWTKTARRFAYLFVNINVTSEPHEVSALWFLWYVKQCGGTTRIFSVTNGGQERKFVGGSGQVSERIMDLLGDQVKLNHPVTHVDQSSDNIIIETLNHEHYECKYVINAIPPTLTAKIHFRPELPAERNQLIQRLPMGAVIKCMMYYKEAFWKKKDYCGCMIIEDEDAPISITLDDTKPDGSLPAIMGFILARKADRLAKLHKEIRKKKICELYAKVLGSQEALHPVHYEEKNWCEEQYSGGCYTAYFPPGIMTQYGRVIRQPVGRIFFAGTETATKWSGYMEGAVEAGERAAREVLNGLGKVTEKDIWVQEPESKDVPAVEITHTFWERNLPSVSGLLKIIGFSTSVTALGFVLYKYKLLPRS
- Experimental Protocol: Inhibition of Monoamine Oxidase MAO-A at compound concentration of 10.0 uM in the Eurofins-Panlabs enzyme assay (Eurofins_assay_140010)
- Set-up: substrate with concentration 50 uM Kynuramine, incubation time 60 min, incubation temperature 37 C
- Assay Conditions: recombinant human MAO-A expressed in insect Hi5 cells, probe kynuramine (50 uM), compound concentration 10 uM
Measurement Type: inhibition at 60 min, 10 µM

Sample C[C@@H]1CN(c2cc(-c3n[nH]c4ccc(OC5(C)CC5)cc34)ncn2)C[C@H](C)O1 ; inhibition at 60 min, 10 µM observed: 2% (not active)
